assay: chemical genetic growth profiling, strain panel (AID 1159580);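 also: tested at 20 µM; growth read once vehicle control cultures reached saturation at 30 °C; 1 = growth at the plate median or of vehicle wells; lower values mean less growth of the strain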; details: S. cerevisiae deletion strains, growth OD, locus YOR316C, strain cot1
Out of some 5,500 compounds screened, about 2,000 (36%) were called active. Another 18% or so got no clear call; they are omitted. Rule as the data show it: active = normalized growth mostly below about 0.91 (no sharp cut-off); inconclusive = no clear call, values can overlap the other calls; inactive = mostly above about 0.92. Some of the results follow.
Assign a class; possible classes are active, inactive

The examples below pair each entry with its known result.
Clc1ccc2c(c1)C(N1CCNCC1)=Nc1ccccc1O2 : inactive
CC(=O)OCC(=O)[C@@]1(O)[C@H](OC(C)=O)CC2C3CCC4=CC(=O)C=C[C@]4(C)[C@@]3(F)[C@@H](O)C[C@@]21C (stereo partly drawn) : inactive
OC1=Cc2c(O)cc(O)cc2OC1(O)c1ccc(O)c(O)c1 (stereo not drawn) : inactive
CC1(C)C(O)CC(O)C2(C)C1CC(O)C1(C)C2CCC2(C)C(c3ccoc3)OC(=O)C3OC321 (stereo not drawn) : inactive

Recorded test outcome, item COc1cc(OC)c2c3c1C(=O)c1c(OC)cc(C)c4c(OC)cc(c-3c14)C(C)(C)C2=O
inactive

Recorded test outcome, item CC1=C2[C@H]3OC(=O)[C@@H](C)[C@@H]3CC[C@@]2(C)C=CC1=O
inactive

Recorded test outcome, item Cc1cc(=O)oc2c(O)c(O)ccc12
inactive

Recorded test outcome, item CSc1ccc2c(c1)N(CCC1CCCCN1C)c1ccccc1S2 (stereo not drawn)
active

Recorded test outcome, item CCC(=O)Nc1ccc(Cl)c(Cl)c1
inactive

Recorded test outcome, item COC(=O)c1c(C)cc(OC(=O)c2c(C)c(Cl)c(O)c(C=O)c2O)c(C)c1O
inactive

====

assay: chemical genetic growth profiling, strain panel (AID 1159580); conditions: S. cerevisiae deletion strains, growth OD, locus YHR013C, strain ard1
Out of some 5,500 compounds screened, about 2,000 (36%) were called active. Inconclusive results (about 18%) are left out. Cut-off read from the data, not from the text of the source: active = normalized growth mostly below about 0.91 (no sharp cut-off); inconclusive = no clear call, values can overlap the other calls; inactive = mostly above about 0.92. The list shows a part of the results.
Assign a class; possible classes are active, inactive

The examples below pair each entry with its known result.
CC12CC3CC(C)(C1)CC(N)(C3)C2 : inactive
C[C@]12C=CC(=O)C=C1CCC1C3C[C@@H](O)[C@](O)(C(=O)CO)[C@@]3(C)C[C@H](O)[C@@]12F (some centres not stated) : inactive
CC(=O)N=c1sc(S(N)(=O)=O)nn1C : inactive
C[C@H](CCC(=O)O)[C@H]1CCC2C3C(CC[C@@]21C)[C@@]1(C)CC[C@@H](O)C[C@H]1C[C@H]3O (some centres not stated) : inactive
CCOC(=O)[C@H](CCc1ccccc1)N[C@@H](C)C(=O)N1Cc2ccccc2C[C@H]1C(=O)O : inactive

Recorded test outcome, item CCCC(CCC)C(=O)O
inactive

Recorded test outcome, item C[C@@H]1CC2C3CCC4=CC(=O)C=C[C@]4(C)[C@@]3(F)[C@@H](O)C[C@]2(C)[C@H]1C(=O)CO (some centres not stated)
inactive

Recorded test outcome, item CC(=O)O[C@H]1C[C@@H](OC(C)=O)C(C)(C)C2CC(=O)[C@]3(C)C(CC[C@@]4(C)[C@H](c5ccoc5)OC(=O)[C@H]5O[C@]543)[C@]21C (some centres not stated)
inactive

Recorded test outcome, item NC(N)=O
inactive

Recorded test outcome, item O=C(O)c1ccccc1C(=O)Nc1ccc(S(=O)(=O)Nc2nccs2)cc1
inactive

Recorded test outcome, item C/C=C/C(=O)N(CC)c1ccccc1C
inactive

Recorded test outcome, item O=c1cc(-c2ccccc2)oc2cc(O)c(O)c(O)c12
active

====

test: chemical genetic growth profiling, strain panel (AID 1159580);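 also: tested at 20 µM; growth read once vehicle control cultures reached saturation at 30 °C; 1 = growth at the plate median or of vehicle wells; lower values mean less growth of the strain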; conditions: S. cerevisiae deletion strains, growth OD, locus YJL164C, strain tpk1
Hit rate of the full screen: of about 5,500 compounds, about 2,000 (36%) were called active. Another 18% or so got no clear call; they are omitted. Cut-off read from the data, not from the text of the source: active = normalized growth mostly below about 0.91 (no sharp cut-off); inconclusive = no clear call, values can overlap the other calls; inactive = mostly above about 0.92. Some of the results follow.
Assign a class; possible classes are class 1 = active, class 0 = inactive

The examples below pair each entry with its known result.
CC1CCC2(OC1)OC1CC3C4CCC5C[C@@H](O)CCC5(C)C4=CCC3(C)C1[C@@H]2C (some centres not stated) : class 0
C[C@H](CCC(=O)O)[C@H]1CCC2C3C(CC[C@@]21C)[C@@]1(C)CC[C@@H](O)C[C@H]1C[C@@H]3O (some centres not stated) : class 0
O=C(O)CCC(=O)Nc1ccc(S(=O)(=O)Nc2nccs2)cc1 : class 0

Recorded test outcome, item O=c1cc(-c2cc(O)c(O)c(O)c2)oc2cc(O)cc(O)c12
class 0

Recorded test outcome, item CN(C)CCC(c1ccc(Br)cc1)c1ccccn1 (configuration not stated)
class 0

Recorded test outcome, item CN(CCC(N)CC(=O)N[C@H]1C=CC(n2ccc(N)nc2=O)O[C@@H]1C(=O)O)C(=N)N (some centres not stated)
class 1

Recorded test outcome, item CC(C)CCCC(C)C1CCC2C3CC[C@H]4CCCC[C@]4(C)C3CC[C@]12C (some centres not stated)
class 0

====

assay: chemical genetic growth profiling, strain panel (AID 1159580);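 also: tested at 20 µM; growth read once vehicle control cultures reached saturation at 30 °C; 1 = growth at the plate median or of vehicle wells; lower values mean less growth of the strain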; conditions: S. cerevisiae deletion strains, growth OD, locus YGR252W, strain gcn5, stronger effect = lower value
Out of some 5,500 compounds screened, about 2,000 (36%) were called active. Another 18% or so got no clear call; they are omitted. Some of the results follow. Where a SMILES comes first, the peptide text is derived from it.
Each item that follows carries a reported normalized growth.

Example cases with answers are listed next.
N[C@@H](Cc1cc(I)c(Oc2ccc(O)c(I)c2)c(I)c1)C(=O)O : 0.929 (inactive)
CCCC(C(=O)OCCN(CC)CC)(c1ccccc1)c1ccccc1 : 0.877 (inactive)

# normalized growth of CCCCCC1C(=O)CCC1CC(=O)O (configuration not stated) = 0.993 (inactive)

# normalized growth of CC(=O)N=c1sc(S(N)(=O)=O)nn1C = 1.01 (inactive)

# normalized growth of O=C(O)Cc1cc(I)c(Oc2cc(I)c(O)c(I)c2)c(I)c1 = 1.06 (inactive)

# normalized growth of CCC(=O)Nc1ccc(Cl)c(Cl)c1 = 0.874 (inactive)

# normalized growth of C=C1[C@H]2CC[C@@]3(C)[C@H](c4ccoc4)OC(=O)C[C@]13O[C@H]1C[C@H](O)C(C)(C)[C@H](CC(=O)OC)[C@]12C = 1.02 (inactive)

# normalized growth of NCCCCC(N)C(=O)NC(Cc1ccc(O)cc1)C(=O)NC(CCCCN)C(=O)O (stereo not drawn) (H-Lys-Tyr-Lys-OH; configuration not given here) = 0.958 (inactive)

# normalized growth of C=C1C2=CC(=O)O[C@@H](c3ccoc3)[C@]2(C)CCC1[C@@]1(C)C=CC(=O)C(C)(C)[C@@H]1CC(=O)OC (some centres not stated) = 0.976 (inactive)

# normalized growth of CC1(C)C(=O)C=C[C@@]2(C)C1CC(=O)[C@@]1(C)C3=CC(=O)O[C@@H](c4ccoc4)[C@]3(C)CCC12 (some centres not stated) = 0.939 (inactive)

# normalized growth of C=C1C(C2(C)C=CC(=O)C(C)(C)C2CC(=O)OC)CC[C@@]2(C)[C@H](c3ccoc3)OC(=O)C3OC132 (some centres not stated) = 0.984 (inactive)

# normalized growth of CCCCSP(=O)(SCCCC)SCCCC = 0.984 (inactive)

# normalized growth of N[C@H](Cc1cc(I)c(Oc2ccc(O)c(I)c2)c(I)c1)C(=O)O = 0.87 (inactive)

# normalized growth of N[C@H](Cc1ccccc1)C(=O)O = 0.935 (inactive)

# normalized growth of NC(Cc1ccc(F)cc1)C(=O)O (configuration not stated) = 1.06 (inactive)

# normalized growth of COC(=O)CCC(=O)O[C@H]1CCC2(C)C(CCC3C2C(=O)[C@@H](O)C2(C)C3CC3OC4(CCC(C)CO4)[C@@H](C)C32)C1 (some centres not stated) = 0.963 (inactive)

====

assay: chemical genetic growth profiling, strain panel (AID 1159580);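 also: tested at 20 µM; growth read once vehicle control cultures reached saturation at 30 °C; 1 = growth at the plate median or of vehicle wells; lower values mean less growth of the strain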; details: S. cerevisiae deletion strains, growth OD, locus YNL322C, strain KRE1 (second series), stronger effect = lower value
Screen size: about 5,500 compounds; about 2,000 (36%) were called active. Another 18% or so got no clear call; they are omitted. The list shows a part of the results.
Each item that follows carries a reported normalized growth.
Form: value (number only, do not type unit).

Example cases with answers are listed next.
O=C(Nc1ccccc1)Nc1ccccc1 : 0.965
CCCCC[C@H](CC(=O)NO)C(=O)N[C@H](C(=O)N1CCC[C@H]1CO)C(C)C : 1.03
Cc1nc2ccccn2c(=O)c1CCN1CCC(C(=O)c2ccc(F)cc2)CC1 : 0.966

# normalized growth of NS(=O)(=O)c1cc2c(cc1Cl)NC(C1CC3C=CC1C3)NS2(=O)=O (stereo unspecified) = 1

# normalized growth of N#C/C(=C\c1cccc(O)c1)C(=O)O = 0.952

# normalized growth of C[C@@H](N)[C@@H](O)c1ccccc1 = 0.99

# normalized growth of O=c1cc(-c2ccc(O)cc2)oc2cc(O)cc(O)c12 = 0.977

# normalized growth of O=c1cc(-c2ccccc2)oc2cc(O)c(O)cc12 = 0.992

# normalized growth of CC(=O)O[C@H]1C[C@@H](OC(C)=O)C(C)(C)C2CC(=O)[C@]3(C)C(CC[C@@]4(C)[C@H](c5ccoc5)OC(=O)[C@H]5O[C@]543)[C@]21C (stereo partly specified) = 0.994

# normalized growth of Nc1cc(-c2ccncc2)c[nH]c1=O = 0.907

# normalized growth of O=c1cc(-c2ccccc2)oc2c(O)c(O)ccc12 = 0.993
